Entries annotated with measured pIC50
Biological target: UniProt:P00533
Assay: In vitro inhibition of Epidermal growth factor receptor tyrosine kinase isolated from A431 (human carcinoma).
For clarity, pIC50 is expressed as the negative log10 of concentration in mol/L.

Use these answered entries as a reference point.
>  <Structure>
Cc1cccc(Nc2ncnc3ccc(/N=N/N(C)C)cc23)c1

>  <pIC50>
7.62

$$$$
>  <Structure>
Brc1cccc(Nc2ncnc3ccc(NN=NCc4ccccc4)cc23)c1

>  <pIC50>
7.60

$$$$

Tell me the measured pIC50 of CN=NNc1ccc2ncnc(NCc3ccccc3)c2c1 , please.
6.47

Tell me the measured pIC50 of CN(c1ccccc1)c1ncnc2ccc(N)cc12 , please.
5.08

Tell me the measured pIC50 of Brc1cccc(Nc2ncnc3ccc(N/N=N/CCN4CCOCC4)cc23)c1 , please.
7.19

Tell me the measured pIC50 of CN(C)/N=N/c1ccc2ncnc(Nc3cccc(Cl)c3)c2c1 , please.
7.85

Tell me the measured pIC50 of CN(C)/N=N/c1ccc2ncnc(NCc3ccccc3)c2c1 , please.
6.32

Tell me the measured pIC50 of CN(c1ccccc1)c1ncnc2ccc(NN=NCc3ccccn3)cc12 , please.
5.03

* * *

Entries annotated with measured pIC50
Molecular target: Epidermal growth factor receptor (Homo sapiens)
Sequence (P00533 whole entry): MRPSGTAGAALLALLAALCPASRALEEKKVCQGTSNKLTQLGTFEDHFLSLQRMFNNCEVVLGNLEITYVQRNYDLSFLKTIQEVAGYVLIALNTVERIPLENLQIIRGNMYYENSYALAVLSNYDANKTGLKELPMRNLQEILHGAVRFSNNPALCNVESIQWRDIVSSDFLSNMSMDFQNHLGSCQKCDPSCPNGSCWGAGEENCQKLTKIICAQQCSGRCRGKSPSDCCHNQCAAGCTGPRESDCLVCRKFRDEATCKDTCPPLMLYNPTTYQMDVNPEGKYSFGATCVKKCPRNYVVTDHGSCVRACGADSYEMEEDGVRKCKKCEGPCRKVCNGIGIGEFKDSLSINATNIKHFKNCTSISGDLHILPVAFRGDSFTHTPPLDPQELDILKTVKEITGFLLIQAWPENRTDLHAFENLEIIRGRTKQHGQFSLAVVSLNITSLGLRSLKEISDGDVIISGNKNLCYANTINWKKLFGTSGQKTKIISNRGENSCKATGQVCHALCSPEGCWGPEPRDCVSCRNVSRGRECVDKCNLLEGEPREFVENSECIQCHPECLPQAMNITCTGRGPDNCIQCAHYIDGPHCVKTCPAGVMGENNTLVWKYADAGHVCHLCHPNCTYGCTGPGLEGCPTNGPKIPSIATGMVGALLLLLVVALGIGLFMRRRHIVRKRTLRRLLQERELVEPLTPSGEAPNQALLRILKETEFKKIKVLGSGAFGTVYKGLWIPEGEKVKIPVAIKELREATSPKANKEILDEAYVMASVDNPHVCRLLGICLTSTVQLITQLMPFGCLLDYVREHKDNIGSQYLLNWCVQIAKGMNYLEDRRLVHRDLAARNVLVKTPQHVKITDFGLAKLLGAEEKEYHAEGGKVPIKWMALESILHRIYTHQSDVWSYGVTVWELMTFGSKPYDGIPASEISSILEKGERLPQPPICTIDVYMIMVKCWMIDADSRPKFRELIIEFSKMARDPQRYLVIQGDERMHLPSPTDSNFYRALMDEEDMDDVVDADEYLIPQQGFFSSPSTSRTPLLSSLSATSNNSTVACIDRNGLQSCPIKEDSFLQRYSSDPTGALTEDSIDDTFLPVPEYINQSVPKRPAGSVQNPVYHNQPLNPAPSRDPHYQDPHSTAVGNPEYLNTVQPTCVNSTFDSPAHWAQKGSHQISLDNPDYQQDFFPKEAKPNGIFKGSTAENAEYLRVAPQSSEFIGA
Test: In vitro inhibition of Epidermal growth factor receptor tyrosine kinase isolated from A431 (human carcinoma).
For clarity, pIC50 is expressed as the negative log10 of concentration in mol/L.

>  <Structure>
Nc1ccc2ncnc(NCc3ccccc3)c2c1

>  <pIC50>
6.29

$$$$
>  <Structure>
CN=NNc1ccc2ncnc(N(C)c3ccccc3)c2c1

>  <pIC50>
5.10

$$$$
>  <Structure>
CN(C)/N=N/c1ccc2ncnc(N(C)c3ccccc3)c2c1

>  <pIC50>
4.87

$$$$
>  <Structure>
Brc1cccc(Nc2ncnc3ccc(NN=NCc4ccccn4)cc23)c1

>  <pIC50>
6.62

$$$$

Tell me the measured pIC50 of CN(C)CCN=NNc1ccc2ncnc(Nc3cccc(Br)c3)c2c1 , please.
7.42

Tell me the measured pIC50 of CN(C)/N=N/c1ccc2ncnc(Nc3cccc(Br)c3)c2c1 , please.
7.96
